# targetEntity: endothelial lipase (EL) (Homo sapiens)
# Construct: made in house; host or cells: recombinant cell lines (CHO, HEK293); concentrated conditioned medium used as enzyme solution
# Sequence (Q9Y5X9 21-500, species assumed): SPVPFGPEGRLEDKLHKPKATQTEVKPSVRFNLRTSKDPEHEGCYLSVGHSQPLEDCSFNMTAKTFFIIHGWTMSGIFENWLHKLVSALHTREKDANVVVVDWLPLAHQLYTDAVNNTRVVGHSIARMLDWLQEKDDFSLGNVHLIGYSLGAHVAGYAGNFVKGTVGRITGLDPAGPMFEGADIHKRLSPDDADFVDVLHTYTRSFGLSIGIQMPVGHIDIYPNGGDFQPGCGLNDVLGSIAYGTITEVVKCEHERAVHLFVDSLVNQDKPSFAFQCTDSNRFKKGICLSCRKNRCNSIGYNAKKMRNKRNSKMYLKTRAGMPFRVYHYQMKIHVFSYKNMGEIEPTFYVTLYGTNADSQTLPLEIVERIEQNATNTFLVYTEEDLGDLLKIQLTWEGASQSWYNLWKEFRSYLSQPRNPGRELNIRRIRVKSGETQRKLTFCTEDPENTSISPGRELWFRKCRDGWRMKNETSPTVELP
# assaySummary: Further EL inhibition assay
# Assay type: biochemical
# conditionInfo: Bodipy-labelled phospholipid substrate, 37° C., 90 minutes, HPTLC fluorescence readout; EL from conditioned medium of recombinant cell lines (CHO, HEK293)
Field: IC50. Provide a value for each of the molecules that follow.
Answers are plain numbers, in µM.

Solved cases (3 shown):
Cc1ccccc1CNC(=O)n1c(=O)oc2ccccc21 [Example 5] = 0.95
CC(=O)c1ccc2c(c1)oc(=O)n2C(=O)NCc1ccccc1C [Example 2] = 0.51
CC(=O)c1ccc2c(c1)oc(=O)n2C(=O)NCc1ccccc1 [Example 1] = 0.13

Now, please, on to the next molecule.
Return IC50 for the following molecule: O=C(NCc1ccccc1)n1c(=O)oc2ccc(Cl)cc21 [Example 7]
0.23

Value source: patent US7709513B2
